# assayed.system: GST tagged PIP4KtypeIIA (Homo sapiens)
# Sequence (P48426 1-406): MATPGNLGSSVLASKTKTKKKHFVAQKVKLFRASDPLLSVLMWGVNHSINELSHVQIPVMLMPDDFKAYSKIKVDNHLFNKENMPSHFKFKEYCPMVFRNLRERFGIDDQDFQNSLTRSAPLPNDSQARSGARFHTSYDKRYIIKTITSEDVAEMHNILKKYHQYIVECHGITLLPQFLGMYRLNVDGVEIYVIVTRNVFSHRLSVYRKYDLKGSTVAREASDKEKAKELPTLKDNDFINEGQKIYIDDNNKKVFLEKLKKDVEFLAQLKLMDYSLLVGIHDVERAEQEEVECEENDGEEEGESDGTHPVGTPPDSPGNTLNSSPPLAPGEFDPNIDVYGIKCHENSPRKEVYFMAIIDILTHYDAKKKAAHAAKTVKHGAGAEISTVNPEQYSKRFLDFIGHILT
# IC50 per record follows

Q: Reported IC50, compound CN1CCn2c(cc3c(-c4cncc(-c5ccc(N6CCCCC6=O)cc5)c4)ccnc32)C1=O : ____
Ans: 100 to 1000 nM

Q: // same read-out, input: CN(C)C(=O)c1cnc2occ(-c3cncc(-c4ccc(N5CCCC5=O)cc4)c3)c2c1
Ans: 10 to 100 nM

Q: // same read-out, input: CC(C)OC(=O)c1cc2c(-c3cncc(-c4ccc(N5CCCC5=O)cc4)c3)ccnc2o1
Ans: 10 to 100 nM

Q: // same read-out, input: Cc1c(-c2ccc(N3CCCC3=O)cc2)cncc1-c1cn(C)c2ncc([C@@H](C)O)cc12 (single isomer, unassigned) [196(R)]
Ans: 100 to 1000 nM

Q: // same read-out, input: CN(C)C(=O)c1ccc(-c2cc(-c3ccnc4[nH]c(C(=O)N5CC6(COC6)C5)cc34)cnc2N)nc1
Ans: 100 to 1000 nM

Q: // same read-out, input: CC(O)c1cnc2[nH]cc(-c3cncc(-c4ccc(N5CCCC5=O)cc4)c3)c2c1 (stereo not shown)
Ans: 100 to 1000 nM

Q: // same read-out, input: CN(C)C(=O)c1ccc(-c2cc(-c3ccnc(CNC(=O)c4cccc(N)c4)c3)cnc2N)nc1
Ans: > 5000 nM

###

pIC50: −log10 of the molar value.
// each record: one item and its pIC50 for GST tagged PIP4KtypeIIB (Homo sapiens)

{"columns": ["smiles.data", "pIC50"],
 "data": [
  ["Cc1nc(CNC(=O)c2cc3c(-c4cncc(-c5ccc(N6CCCC6=O)cc5)c4)ccnc3[nH]2)oc1C", "7.00 to 8.00"],
  ["Cc1[nH]c2ncc(C(=O)N(C)C)cc2c1-c1cncc(-c2ccc(N3CCCC3=O)cc2)c1", "6.00 to 7.00"],
  ["O=C(NC1CC1)c1cc2c(-c3cncc(-c4ccc(N5CCCC5=O)cc4)c3)ccnc2[nH]1", "7.00 to 8.00"]
]}

Next, consider the following molecule.
Q: Reported pIC50, molecule CN(C)C(=O)c1ccc(-c2cc(-c3ccnc4cc(C#N)ccc34)cnc2N)nc1 : ____
Ans: 5.60 to 6.00

###

Sequence of the target: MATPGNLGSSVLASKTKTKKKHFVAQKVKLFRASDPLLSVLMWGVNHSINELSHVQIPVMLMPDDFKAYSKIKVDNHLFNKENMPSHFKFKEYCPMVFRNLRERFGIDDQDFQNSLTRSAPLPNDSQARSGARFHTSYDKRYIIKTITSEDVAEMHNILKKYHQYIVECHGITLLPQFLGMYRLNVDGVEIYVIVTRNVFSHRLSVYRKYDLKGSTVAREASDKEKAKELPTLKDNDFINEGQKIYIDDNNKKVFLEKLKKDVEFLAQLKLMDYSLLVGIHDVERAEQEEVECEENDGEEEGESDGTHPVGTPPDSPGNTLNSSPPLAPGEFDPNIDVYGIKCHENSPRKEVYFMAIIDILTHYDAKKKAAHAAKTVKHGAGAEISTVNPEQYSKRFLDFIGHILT
pIC50: −log10 of the molar value.
measured.attribute: pIC50

# count of solved cases: 2
{"columns": ["smiles.data", "pIC50"],
 "data": [
  ["CN(C)C(=O)c1ccc(-c2cc(-c3ccnc4ncccc34)cnc2N)nc1", "6.00 to 7.00"],
  ["CN(C)C(=O)c1cc2c(-c3cncc(-c4ccc(N5CCCC5=O)cc4)c3)ccnc2o1", "7.00 to 8.30"]
]}

Q: Reported pIC50, molecule CN(C)C(=O)c1ccc(-c2cc(-c3ccnc4[nH]c(=O)[nH]c34)cnc2N)nc1 : ____
Ans: 7.00 to 8.30

Q: // same read-out, input: COc1cc(-c2cncc(-c3ccc(N4CCCC4=O)cc3)c2)c2c[nH]nc2n1
Ans: 6.00 to 7.00

Q: // same read-out, input: CCN(C)C(=O)c1ccc(-c2cncc(-c3ccnc4c3cc3n4CCN(C)C3=O)c2)cc1
Ans: 6.00 to 7.00

###

// each record: one item and its pIC50 for UniProt P78356
pIC50: −log10 of the molar value.

{"columns": ["molecule", "value.reported"],
 "data": [
  ["COC(=O)c1cc2c(-c3cncc(-c4ccc(N5CCCC5=O)cc4)c3C)ccnc2[nH]1", "7.00 to 8.00"]
]}

Q: Identify the measured pIC50 of CC(C)n1cnnc1-c1ccc(-c2cncc(-c3ccnc4[nH]c(C(=O)NCc5cccnc5)cc34)c2)cc1 for UniProt P78356.
Ans: 7.00 to 8.00

Q: // same read-out, input: O=C1CCCN1c1ccc(-c2cncc(-c3ccnc4cn[nH]c34)c2)cc1
Ans: 6.00 to 7.00

Q: // same read-out, input: O=C(COc1cccc2c1C(=O)N(C1CCC(=O)NC1=O)C2=O)NCCCCCCCCNC(=O)c1cc2c(-c3cncc(-c4ccc(N5CCCC5=O)cc4)c3)ccnc2[nH]1 (stereo not shown)
Ans: 6.00 to 7.00

###

// each record: one item and its IC50 for GST tagged PIP4KtypeIIB (Homo sapiens, UniProt P78356)

# count of solved cases: 5
{"columns": ["molecule", "value.reported"],
 "data": [
  ["COC(=O)c1cc2c(-c3cnc(N)c(-c4ccc(C(=O)N(C)C)cn4)c3)ccnc2[nH]1", "0.01 to 0.1 µM"],
  ["CN(C)C(=O)c1ccc(-c2cncc(-c3ccnc4c3ccn4C)c2)cc1", "1 to 2.5 µM"],
  ["COC(=O)c1cc2c(-c3cncc(-c4ccc(N5CCCC5=O)cn4)c3)ccnc2[nH]1", "0.1 to 1 µM"],
  ["Cc1cc(N2CCCC2=O)ccc1-c1cncc(-c2cn(C)c3ncc(C(C)O)cc23)c1 (centres unmarked)", "0.1 to 1 µM"],
  ["CN1CCn2c(cc3c(-c4cncc(-c5ccc(-c6nncn6CC6CC6)cc5)c4)ccnc32)C1=O", "0.01 to 0.1 µM"]
]}

Q: Reported IC50, molecule Cn1cc(-c2cnc(N)c(-c3ccc(N4CCCC4=O)cc3)c2)c2cccnc21 : ____
Ans: 0.1 to 1 µM

Q: // same read-out, input: O=C(NCCc1cccnc1)c1cc2c(-c3cncc(-c4ccc(N5CCCC5=O)cc4)c3)ccnc2[nH]1
Ans: 0.01 to 0.1 µM

Q: // same read-out, input: CN(C)C/C=C/C(=O)Nc1cccc(CCC(=O)NCc2cc(-c3cnc(N)c(-c4ccc(C(=O)N(C)C)cn4)c3)ccn2)c1
Ans: 2.5 to 5 µM

###

// each record: one item and its IC50 for PIP4K2A (full length protein, SignalChem) (Homo sapiens)

# count of solved cases: 3
{"columns": ["smiles.data", "IC50"],
 "data": [
  ["O=C1CCCN1c1ccc(-c2cncc(-c3c4n(c5ncccc35)CCC4)c2)cc1", "0.005 to 0.1 µM"],
  ["CN1CCn2c(cc3c(-c4cncc(-c5ccc(-c6nncn6C6CCC6)cc5)c4)ccnc32)C1=O", "1 to 2.5 µM"],
  ["CN(C)C(=O)c1ccc(-c2cncc(-c3cncc(-c4ccnc5[nH]ccc45)c3)c2)cc1", "0.1 to 1 µM"]
]}

Next, consider the following compound.
Q: Reported IC50, compound Cc1c[nH]c2nccc(-c3cncc(-c4ccc(N5CCCC5=O)cc4)c3)c12 : ____
Ans: 1 to 2.5 µM

###

# assayed.system: GST tagged PIP4KtypeIIA (Homo sapiens, UniProt P48426)
# Construct: made in house; host or cells: E. coli
# protocol.details: ADP-glo kinase assay PIP4K 2A (PIP4KtypeIIA inhibition assay)
# Assay type: biochemical
# measurement.context: Table 3; compounds listed under IC50 range headings; 10 uM ATP, 0.5 nM PIP4KIIA
pIC50: −log10 of the molar value.
measured.attribute: pIC50

{"columns": ["molecule", "value.reported"],
 "data": [
  ["O=C(N[C@H]1C[C@H](c2ccccc2)C1)c1cc2c(-c3cncc(-c4ccc(N5CCCC5=O)cc4)c3)ccnc2[nH]1", "5.60 to 6.00"],
  ["O=C(NCc1ccc2c(c1)COB2O)c1cc2c(-c3cncc(-c4ccc(N5CCCC5=O)cc4)c3)ccnc2[nH]1", "6.00 to 7.00"],
  ["Cn1cc(-c2cnc(N)c(-c3ccc(N4CCCC4=O)cc3)c2)c2cccnc21", "6.00 to 7.00"],
  ["CC(O)c1cnc2[nH]c(C3CC3)c(-c3cncc(-c4ccc(N5CCCC5=O)cc4)c3)c2c1 (stereo not shown)", "7.00 to 8.00"],
  ["O=C1CCCN1c1ccc(-c2cncc(-c3ccnc4c3cnn4CCO)c2)cc1", "6.00 to 7.00"],
  ["O=C(Nc1ccc(-c2cncc(-c3ccnc4[nH]ncc34)c2)cc1)C(=O)N1CC2CCC1C2 (stereo not shown)", "6.00 to 7.00"]
]}

Q: Reported pIC50, molecule CN(C)C(=O)c1cc2c(-c3cncc(-c4ccc(N5CCCC5=O)cc4)c3)ccnc2[nH]1 : ____
Ans: 7.00 to 8.00

Values from patent US11919902B2
